experimentSummary: LD20 in the P388/0 test
Type: in vivo, mouse (CD2-F1)
testContext: ip, days 1, 5 and 9
metricName: LD20 (mg/kg)
Field: numeric (mg/kg). Do not append units.

CCC(CO)(CO)NCc1cc2c3ccccc3ccc2c2ccccc12.Cl
100
OCC(CO)NCc1cc2c3ccccc3ccc2c2ccccc12
160
CC(CO)(CCO)NCc1cc2c3ccccc3ccc2c2ccccc12 (stereo not shown) [Example 12G]
90
CC(CO)(CO)NCc1ccc2ccc3c4ccccc4ccc3c2c1 [Example 19H]
150
C[C@@H](O)[C@@](C)(CO)NCc1cc2c3ccccc3ccc2c2ccccc12.Cl (relative stereo)
100

What value of measured LD20 is listed for CC(C)C(CO)(CO)NCc1cc2c3ccccc3ccc2c2ccccc12 [Example 11C] ?
150

What value of measured LD20 is listed for CCc1cc2c3ccccc3c(CNC(C)(CO)CO)cc2c2ccccc12 [Example 15B] ?
150

----------
Below, each entry is listed alongside its reported LD20.
experimentSummary: LD20 in the P388/0 test
Type: in vivo, mouse (CD2-F1)
testContext: ip, days 1, 5 and 9
Field: numeric (mg/kg). Do not append units.

Consider the following illustrative entries.
CC(CO)(CO)NCc1cc2c3ccccc3ccc2c2ccccc12.Cl [Example 1B]
140
C[C@H](O)[C@@](C)(CO)NCc1cc2c3ccccc3ccc2c2ccccc12 (relative stereo) [Example 6G]
53
CS(=O)(=O)O.C[C@H](O)[C@@](C)(CO)NCc1cc2c3ccccc3ccc2c2ccccc12 (relative stereo) [Example 6H]
60
CC(C)(CO)NCc1cc2c3ccccc3ccc2c2ccccc12.Cl [Example 18B]
80
Cl.OCC(CO)(CO)NCc1cc2c3ccccc3ccc2c2ccccc12 [Example 2]
100

Please look at the following molecule next.
What value of measured LD20 is listed for CC(CO)(CO)NCc1cc2c3ccccc3c(Cl)cc2c2ccccc12 [Example 4B] ?
180
